Data origin, for the record: paper PMC9282634

- tgt: PBP3 (PaPBP3) (Pseudomonas aeruginosa)
- Construct: gene ftsI; residues 50–579
- protocolNotes: biochemical
- Design: S2d thioester turnover with DTNB, absorbance 412 nm, residual activity after 1 h pre-incubation
- conditionDescription: read-out: Residual Activity by S2d Turnover (%)
Listed compounds paired with reported remaining activity at 1000 µM

The cases that follow already have their remaining activity at 1000 µM on record.
CN1CCN(C(=O)CNC(=O)c2ccc3c(c2)B(O)OC3CC(=O)O)CC1=O (centres unmarked) = 47.5%
O=C(O)c1ccc2c(c1)B(O)OC2 = 57.8%
O=C(O)C[C@@H]1CC[C@H](NC(=O)Cc2cccs2)B(O)O1 = 75.8%
COC(=O)[C@H](NC(=O)c1ccc2c(c1)B(O)OC2)c1ccccc1 = > 90%
O=C1CN(C(=O)[C@@H](Cc2ccccc2)NC(=O)c2ccc3c(c2)B(O)OC3)CCN1 = 80.9%
NC(=O)[C@@H](Cc1ccccc1)NC(=O)c1ccc2c(c1)B(O)OC2 = > 90%

Query: remaining activity at 1000 µM; subject: NC(=O)[C@H](NC(=O)c1ccc2c(c1)B(O)OC2CC(=O)O)c1ccccc1 (some centres unmarked) 19.6%

Query: remaining activity at 1000 µM; subject: CNC(=O)CNC(=O)c1ccc2c(c1)B(O)OC2 > 90%

* * *

- tgt: PBP3 (PaPBP3) (Pseudomonas aeruginosa, UniProt G3XD46)
- Construct: gene ftsI; residues 50–579
- Sequence (G3XD46 50-579): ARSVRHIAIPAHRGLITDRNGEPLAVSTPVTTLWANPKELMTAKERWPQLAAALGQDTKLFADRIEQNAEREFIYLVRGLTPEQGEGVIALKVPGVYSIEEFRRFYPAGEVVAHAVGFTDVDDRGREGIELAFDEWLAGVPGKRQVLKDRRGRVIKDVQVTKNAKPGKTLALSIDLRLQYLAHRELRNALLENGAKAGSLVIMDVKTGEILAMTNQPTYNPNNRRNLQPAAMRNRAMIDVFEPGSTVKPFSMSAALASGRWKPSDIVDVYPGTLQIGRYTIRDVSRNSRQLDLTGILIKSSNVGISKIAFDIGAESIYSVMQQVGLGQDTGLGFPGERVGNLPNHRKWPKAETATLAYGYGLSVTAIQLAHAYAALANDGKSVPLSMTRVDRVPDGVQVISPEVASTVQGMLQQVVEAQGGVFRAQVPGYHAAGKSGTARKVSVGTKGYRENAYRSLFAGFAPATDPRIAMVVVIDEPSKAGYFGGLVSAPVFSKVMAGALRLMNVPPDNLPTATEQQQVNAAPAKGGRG
- protocolNotes: crystal structure; BOCILLIN FL fluorescence anisotropy competition (Ki)
- Format: biochemical
Listed molecules paired with reported Ki
Enter your answer as a number in µM; do not include the unit.

O=C(O)CC1OB(O)c2ccc(OCc3ccccc3)cc21 (stereo not drawn) [compound 15] = 78.1

Query: Ki; subject: NC(=O)[C@H](NC(=O)c1ccc2c(c1)B(O)OC2CC(=O)O)c1ccccc1 (stereo partly drawn) [compound 12, 12] 73.9

Query: Ki; subject: CN1CCN(C(=O)CNC(=O)c2ccc3c(c2)B(O)OC3CC(=O)O)CC1=O (stereo not drawn) [compound 13, 13] 172
